Source: patent US20250304567A1

Consider the following molecules; for each one, report its IC50.
System: p-IKKa levels in L363 (NIK translocated multiple myeloma) cells
experimentDescription: Effect of compounds on p-IKKa levels in L363 (NIK translocated multiple myeloma) cells (AlphaLISA SureFire Ultra p-IKKa Ser176/180)
Type: cell-based, human
measurementConditions: p-IKKa levels in L363 cells; average if tested more than once; read-out: Assay 2 IC50

Please supply the value of reported IC50 for the item CC(Nc1nccc(-c2nc(-c3cccc(C4(O)CCN(C)C4=O)c3)cs2)n1)c1ccn(C)n1 (single isomer, unassigned) [Example 51]
100 to 500 nM

Please give the documented IC50 of CN1CCC(O)(c2cc(C#N)cc(-c3csc(-c4ccnc(Nc5ccn(C)n5)n4)n3)c2)C1=O (single isomer, unassigned)
> 501 nM

Write down IC50 measured for item CC(Nc1nccc(-c2nc(-c3cccc(C4(O)CCN(C)C4=O)c3)cs2)n1)c1cc[nH]n1 (single isomer, unassigned) [Example 41]
100 to 500 nM

Give the value of IC50 reported for the following: CC(Nc1nccc(-c2csc(-c3cccc([C@]4(O)CCN(C)C4=O)c3)n2)n1)c1nc2ccccc2[nH]1 (stereo partly drawn)
> 501 nM

// fetch IC50 given entry CN1CCC(O)(c2cc(F)cc(-c3csc(-c4ccnc(Nc5ccn(C)n5)n4)n3)c2)C1=O (single isomer, unassigned) [Example 27]
100 to 500 nM

Read off the recorded IC50 for C[C@H](Nc1nccc(-c2csc(-c3cccc([C@]4(O)CCN(C)C4=O)c3)n2)n1)c1cn[nH]c1 (single isomer, unassigned)
> 501 nM
